System: Staphylococcus aureus
Assay: Antibacterial activity against Staphylococcus aureus MRSA ATCC 43300 (CO-ADD:GP_020); MIC in CAMBH media using NBS plates, by Resazurin F(560/590)
Type: functional
Conditions: Concentration 20 uM, ASSAY_TEST Inhibition of Bacterial Growth, detection method Resazurin, Fluorescence (ex560/em590), MEDIA CAMHB, plate type 384well, CORNING #3640, time 18 hr
Kindly supply the reported Inhibition values for the records listed here.
Give the value in % but do not write % after it.

Find the recorded Inhibition belonging to `Nc1nc(O)c2nn(-c3ccccc3)nc2n1` and report it.
7.59

Please give the result for `Cc1ccc2c(c1)C(=C(C#N)C#N)CCN2` too.
5.58

Please give the result for `CCCCOC(=O)c1cccnc1` too.
2.44

Please give the result for `Nc1cc(N)nc(CS)n1` too.
9.52

Please give the result for `CCCCSc1cc(O)nc(N)n1` too.
-2.6

Please give the result for `O=CN/C=C\c1cc(O)ccc1O` too.
-18.33

Please give the result for `Clc1ccccc1/C=C/c1ccnc2ccccc12` too.
12.2

Please give the result for `Nc1ccccc1-c1nc2cnccc2[nH]1` too.
12.51

Please give the result for `CCNC(=O)Oc1cccnc1O` too.
2.22

Please give the result for `O=C(NC(=S)Nc1cc(Cl)ccc1O)c1cccc(Br)c1` too.
15.1

Please give the result for NS(=O)(=O)c1cc2c(cc1Cl)NC(CC1CCCC1)NS2(=O)=O (centres undefined) [CYCLOPENTHIAZIDE] too.
1.39

Please give the result for `Cc1ccc(-n2nnnc2-c2cccnc2)cc1` too.
21.74

Please give the result for `Cc1c([N+](=O)[O-])oc2c1C(=O)NCCC2` too.
15.45

Please give the result for `Cn1ncc2c(O)nc(N)nc21` too.
6

---

Test system: Klebsiella pneumoniae
Conditions: Concentration 20 uM; ASSAY_TEST Inhibition of Bacterial Growth; detection method Absorption (OD600); MEDIA CAMHB; plate type 384well; NBS; CORNING #3640; time 18 hr
Description: Antibacterial activity against Klebsiella pneumoniae MDR ATCC 70063 (CO-ADD:GN_003); MIC in CAMBH media using NBS plates, by OD(600)
Measured potencies and affinities stand elsewhere.
Decision: Inhibition >= 10% yields Fulfilled, all other cases yield Not fulfilled.

Kindly determine if Inhibition recorded for `Nc1ccc(SCc2nc3cccc4c3n2CCC4)cc1` is above or exactly 10%.
Fulfilled

Please give the result for `O=C(NC(=S)Nc1cccc2c(O)cccc12)c1cccc(Br)c1` too.
Fulfilled

Please give the result for `C/C(=N\NC(N)=O)c1ccc(Cl)c(-n2cccc2)c1` too.
Fulfilled

Please give the result for `Cc1csc(/N=N/c2ccc(N(C)C)cc2)[n+]1[O-]` too.
Not fulfilled

Please give the result for `CCOC(=O)c1c(C)nc(C)c(C(=O)OCC)c1-c1cccnc1` too.
Not fulfilled

Please give the result for CC1(C)C2CCC(CN=C(N)CSS(=O)(=O)O)C1C2 (stereo unspecified) too.
Fulfilled

---

Kindly supply the reported Inhibition values for the records listed here.
System: Staphylococcus aureus
Assay: Antibacterial activity against Staphylococcus aureus MRSA ATCC 43300 (CO-ADD:GP_020); MIC in CAMBH media using NBS plates, by Resazurin F(560/590)
Type: functional
Conditions: Concentration 20 uM, ASSAY_TEST Inhibition of Bacterial Growth, detection method Resazurin, Fluorescence (ex560/em590), MEDIA CAMHB, plate type 384well, CORNING #3640, time 18 hr
Give the value in % but do not write % after it.

Please state recorded Inhibition (tested on Staphylococcus aureus) of `Nn1c(Cc2ccccc2)nnc1Cc1ccccc1`
7.31

Please give the result for CC1=NN(c2ccccc2)C(=O)C1C(=S)SC1CC(=O)NC1=O (configuration not stated) too.
3.9

Please give the result for CCc1oc2ccccc2c1C(=O)c1cc(Br)c(O)c(Br)c1 [BENZBROMARONE] too.
-12.4

Please give the result for `c1ccc(-c2ccc3c(c2)NCCN3)cc1` too.
0.03

Please give the result for `Cc1ccc(S(=O)(=O)NNC(=O)C23CCC(CC2)C3)cc1` too.
-6.52

Please give the result for `Nc1ccc(NC(=O)Nc2ccc(N)cc2)cc1` too.
-0.09

Please give the result for `CCOC(=O)/C(C#N)=C/c1cccc(C)c1` too.
35.48

Please give the result for `c1ccc2nc(NN=C3CCCCC3)ccc2c1` too.
9.39

Please give the result for `Nc1nc(N)c(/N=N/c2ccc(C(=O)O)cc2)c(N)n1` too.
20.24

Please give the result for `Cc1cc(=O)n2nc(-c3ccc(C(C)(C)C)cc3)cc2[nH]1` too.
15.3

Please give the result for `CCOC(=O)C(=O)Cc1nc2ccccc2s1` too.
2.9

Please give the result for `C=C1CC2(OC1=O)c1ccccc1CCc1ccccc12` too.
-2.53

These measurements were taken from ChEMBL document CHEMBL4296182.
